Target: T1, hu-IL-2Rγc subunit (human), P31785
T1 chain: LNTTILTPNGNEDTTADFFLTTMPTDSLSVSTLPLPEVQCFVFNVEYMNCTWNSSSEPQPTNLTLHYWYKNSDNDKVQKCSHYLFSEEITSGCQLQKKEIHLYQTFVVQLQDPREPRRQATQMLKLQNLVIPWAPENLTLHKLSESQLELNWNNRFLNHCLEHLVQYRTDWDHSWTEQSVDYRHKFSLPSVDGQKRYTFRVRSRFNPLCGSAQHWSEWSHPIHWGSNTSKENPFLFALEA
Experimental Endpoint: IC50

[Q] What measured IC50 goes with RLGVECQEWEGVDLCWISAF (modifications not checked) [SEQ ID NO 691] ?
[A] < 100 µM

[Q] What measured IC50 goes with PYGVVCQDWAGVELCWVENR (modifications not checked) [SEQ ID NO 683] ?
[A] < 100 µM

[Q] What measured IC50 goes with DRQVVCEEWDGVELCWIEES (modifications not checked) [SEQ ID NO 688] ?
[A] < 100 µM
